B1: ZBTB22 (parent)
chain: FSSSSQEAFAASAVGSGERRGGGP

# Variants of: B1
# Assay Comment: protein stability index of a GFP-peptide fusion (GPS, HEK-293T) (PSI 1-6); higher = more stable;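 further: lentivirally expressed fusions sorted by FACS into six bins by GFP to DsRed ratio, PSI derived from sequencing read proportions per bin multiplied by bin number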
# Run Conditions: c terminus: a fixed tail appended
Assay Endpoint: protein stability index
Answers are plain numbers.

Solved cases (6 shown):
G15S: 3.61
F1Y: 3.48
A11Y: 3.13
P24K: 3.33
S4K: 2.65
G21W: 2.31

Please state, for each entry, its recorded protein stability index.
1. G23Y
2. R19M
3. A13V
4. G23F

Solution:
1. 2.87
2. 3.35
3. 3.87
4. 3.75

Please state, for each entry, its recorded protein stability index.
1. A11T
2. F1S
3. R20G
4. R20K
5. E18C
6. S3Y
7. A10R
8. G17H

Solution:
1: 3.32; 2: 4.85; 3: 3.14; 4: 3.37; 5: 2.96; 6: 3.71; 7: 3.33; 8: 3.62

Please state, for each entry, its recorded protein stability index.
1. F9E
2. G22P
3. S16K

Solution:
1. 5.92
2. 3.7
3. 3.34

Please state, for each entry, its recorded protein stability index.
1. S12P
2. G15E
3. E7H
4. G21Y
5. R20S
6. S3Q
7. F9T

Solution:
1: 3.36; 2: 3.85; 3: 2.31; 4: 3.22; 5: 3.68; 6: 4.07; 7: 5.26
